Recorded values, source patent US12643887B2.

molecular target: human HIPK2 (Homo sapiens); construct: Recombinant human HIPK2 (1-640); GST (N); purchased SignalChem H04-11BG; host or cells: Sf9 insect cells; test: HIPK2 enzyme assay (ADP-Glo); type: biochemical; conditions: ADP-Glo, ATP 5 μM; read-out: HIPK2 IC50
Sequence (Q9H2X6 1-640): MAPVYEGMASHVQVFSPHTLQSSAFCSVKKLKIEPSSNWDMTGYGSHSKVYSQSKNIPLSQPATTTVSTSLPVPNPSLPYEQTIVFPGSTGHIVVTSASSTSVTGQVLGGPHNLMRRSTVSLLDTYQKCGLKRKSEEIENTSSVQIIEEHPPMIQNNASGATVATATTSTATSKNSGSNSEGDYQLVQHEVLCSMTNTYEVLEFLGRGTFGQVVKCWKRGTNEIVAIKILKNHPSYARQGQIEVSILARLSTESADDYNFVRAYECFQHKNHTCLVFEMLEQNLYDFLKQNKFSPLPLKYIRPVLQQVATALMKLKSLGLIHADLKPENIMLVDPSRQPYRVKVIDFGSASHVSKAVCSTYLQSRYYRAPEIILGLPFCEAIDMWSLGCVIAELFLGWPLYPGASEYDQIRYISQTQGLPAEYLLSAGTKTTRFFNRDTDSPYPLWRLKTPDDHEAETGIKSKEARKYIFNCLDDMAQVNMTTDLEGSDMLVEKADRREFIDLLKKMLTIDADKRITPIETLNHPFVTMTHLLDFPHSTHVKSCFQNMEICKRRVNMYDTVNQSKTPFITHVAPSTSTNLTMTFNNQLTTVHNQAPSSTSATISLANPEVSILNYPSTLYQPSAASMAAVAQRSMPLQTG
parameter: IC50

The compound listed as `COc1ccccc1N(C)C1=N/C(=C\c2ccc3c(c2)OCO3)C(=O)N1` shows IC50 equal to > 10000 nM

The compound listed as `CN(C1=N/C(=C\c2ccc3ncsc3c2)C(=O)N1)c1ccc2c(c1)ncn2C` shows IC50 equal to 1000 to 10000 nM

The compound listed as `O=C1NC(Nc2ccc3nccnc3c2)=N/C1=C\c1ccc2ncsc2c1` shows IC50 equal to 100 to 1000 nM

The compound listed as `Cn1ncc2cc(/C=C3\N=C(Nc4ccccc4)NC3=O)ccc21` shows IC50 equal to > 10000 nM

The compound listed as `O=C1NC(Nc2ccc3ncsc3c2)=N/C1=C\c1ccc2occc2c1` shows IC50 equal to > 10000 nM

The compound listed as `Cn1cnc2ccc(/C=C3\N=C(Nc4ccccc4)NC3=O)cc21` shows IC50 equal to 100 to 1000 nM

The compound listed as `O=C1NC(Nc2ccc3ncsc3c2)=N/C1=C\c1ccc2cccnc2c1` shows IC50 equal to > 10000 nM

The compound listed as `Cn1cnc2ccc(NC3=N/C(=C\c4ccc5ncsc5c4)C(=O)N3)cc21` shows IC50 equal to 100 to 1000 nM

The compound listed as `COCCN(C1=N/C(=C\c2ccc3ncsc3c2)C(=O)N1)c1ccc2ncsc2c1` shows IC50 equal to 100 to 1000 nM

The compound listed as `CN(CC1CC1)C1=N/C(=C\c2ccc3c(c2)OCCO3)C(=O)N1` shows IC50 equal to > 10000 nM

The compound listed as `COc1ccc(N(C)C2=N/C(=C\c3ccc4c(c3)OCO4)C(=O)N2)cc1` shows IC50 equal to > 10000 nM

The compound listed as `CN(C1=N/C(=C\c2ccc3c(c2)OCO3)C(=O)N1)c1ccc2ncsc2c1` shows IC50 equal to > 10000 nM

The compound listed as `O=C1NC(Nc2ccccc2)=N/C1=C\c1ccc2ncsc2c1` shows IC50 equal to 100 to 1000 nM

The compound listed as `O=C1NC(Nc2ccc3ncsc3c2)=N/C1=C\c1cncs1` shows IC50 equal to 100 to 1000 nM

The compound listed as `O=C1NC(Nc2ccc3nc[nH]c3c2)=N/C1=C\c1ccc2ncsc2c1` shows IC50 equal to < 100 nM

The compound listed as `O=C1NC(Nc2ccccc2)=N/C1=C\c1ccc2[nH]cnc2c1` shows IC50 equal to 100 to 1000 nM

The compound listed as `COc1ccc(N(C)C2=N/C(=C\c3ccc4ncsc4c3)C(=O)N2)cc1` shows IC50 equal to 1000 to 10000 nM

The compound listed as `O=C1NC(Nc2ccc3ncsc3c2)=N/C1=C\c1ccc2cc[nH]c2c1` shows IC50 equal to > 10000 nM

The compound listed as `O=C1NC(Nc2ccccc2)=N/C1=C\c1ccc2occc2c1` shows IC50 equal to > 10000 nM
